# subjectOfTest: T1, MICA008.His (human MICA*008 alpha 3 domain, His tagged) (human)
# T1 construct: Also used for FPOP (expressed in CHO); also called huMICA*008 alpha 3-his; MICA*008 a3
# T1 chain: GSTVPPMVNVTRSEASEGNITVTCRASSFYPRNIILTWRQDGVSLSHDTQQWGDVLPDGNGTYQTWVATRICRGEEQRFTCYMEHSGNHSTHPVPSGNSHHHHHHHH
# testDescription: SPR (Biacore), MICA*008 alpha-3 domain
experimentalReadout: Kd (nM)
Just the number please, in nM, no unit attached.

A selection of reference data follows.
- binder: "32D2 (antibody, V domains shown, Mouse hybridoma antibody; constant regions differ by assay) VH: DVHLVESGGGLVQPGGSRKLSCAASGFTFNTFGMNWVRQAPEKGLEWVAYINSGSNTIYYADTVKGRFTISRDNPKNTLFLQMTSLRSEDTAMYYCTRWEPVTGGFSYWGQGTLVTVSA VL: QIVLTQSPAFKSSSLGERVTMTCTASSSISSSYLHWYQQKPGSSPKLWIYTTSNLASGVPARFSGSGSGTSYSLTISTMEAEDAATYYCHQHHRSPFTFGSGTKVEIK"
  readingUnit: "nM"
  Kd: 4
- binder: "1D5 (antibody, V domains shown, Mouse variable domains; constant regions differ by assay (human IgG1 or mouse IgG2a); also called anti-MIC 1D5) VH: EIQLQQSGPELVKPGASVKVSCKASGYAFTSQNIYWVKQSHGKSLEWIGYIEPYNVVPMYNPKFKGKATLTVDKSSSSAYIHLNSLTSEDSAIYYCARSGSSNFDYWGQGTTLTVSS VL: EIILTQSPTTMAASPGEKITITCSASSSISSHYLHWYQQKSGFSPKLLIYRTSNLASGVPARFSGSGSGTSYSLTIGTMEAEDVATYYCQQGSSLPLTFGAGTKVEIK"
  readingUnit: "nM"
  Kd: 0.5
- binder: "12H10 (antibody, V domains shown, Mouse variable domains; constant regions differ by assay) VH: DVQLQESGPGLVKPSQPLSLTCTVTGYSITSNYAWNWIRQFPGDKLEWMGYISSSGITKSNPSLKSRISITRDTSKNQFFLQLNSLTTEDTATYYCSRWSNWSFDVWGAGTTVTVSS VL: DIQMTQTPSSLSVSLGDRVTINCRASQDIHNYFNWYQQKPDGTIKLLIYYTSRFHSGVPSRFSGSGSGTDYSLTISNLEEEDIATYFCQQGNSLPPTFGGGTKLEIK"
  readingUnit: "nM"
  Kd: 1.9
- binder: "18G3 (antibody, V domains shown, Mouse variable domains; constant regions differ by assay) VH: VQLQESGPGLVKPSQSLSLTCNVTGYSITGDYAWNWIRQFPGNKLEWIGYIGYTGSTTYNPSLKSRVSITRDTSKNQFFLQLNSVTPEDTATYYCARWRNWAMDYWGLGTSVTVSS VL: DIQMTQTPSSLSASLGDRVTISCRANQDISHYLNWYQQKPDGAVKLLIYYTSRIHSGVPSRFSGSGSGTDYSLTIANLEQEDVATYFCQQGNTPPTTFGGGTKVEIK"
  readingUnit: "nM"
  Kd: 2.6

Could you now look at the following binder, please?
// query Item under review: 20G11 (antibody, V domains shown, Mouse hybridoma antibody; constant regions differ by assay) VH: DVQLVESGGGLVQPGGSRKLSCAASGFTFSTFGIHWVRQAPEKGLEWVAYISYDSRTIYYADTVKGRFTISRDNPKNTLFLQMTSLRSEDTAMYYCARWAYEGGVNYFDNWGQGTTLTVSS VL: QIVLTQSPAIMSASLGERVTMTCTATSGVSSSYLHWYQQKPGSSPKLWIYSSSNLASGVPARFSGSGSGTSYSLTIGSMEAEDAATYYCHQFHRSPLTFGTGTKVEIK . Reported Kd?
// result 3.8

This collection of values is drawn from patent US20200055939A1.
